Data origin, for the record: PubChem BioAssay (EPA / NIEHS)

Target: human Norepinephrine Transporter (NET), SLC6A2 (gene 6530)
Assay: NVS_TR_hNET: NovaScreen (NVS) Transporter Assay for human Norepinephrine Transporter (NET) (AID 2283377);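 note: cell-free membrane protein extracted from CHO cells expressing human NET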
Results filed as inconclusive are left out. The source made the active and inactive calls. Rule for the calls: active = hit-call score of the fitted dose curve at least 0.9, where 1 is the maximum; inconclusive = response in the unintended direction; inactive = score below 0.9.
Outcome codes: YES for active, NO for inactive

{"Compound": "CCCCCCCCCCCCc1ccccc1S(=O)(=O)O", "Class Name": "YES"}
{"Compound": "Cc1oc(-c2ccccc2)nc1CCOc1ccc(C[C@H](Nc2ccccc2C(=O)c2ccccc2)C(=O)O)cc1", "Class Name": "YES"}
{"Compound": "Oc1cc2ccccc2c2ccccc12", "Class Name": "YES"}
{"Compound": "O=[N+]([O-])c1ccc(O)cc1", "Class Name": "NO"}
{"Compound": "NC(=O)N1C(=O)C(C(=O)c2cc(Cl)cs2)c2cc(F)c(Cl)cc21 (stereo not given)", "Class Name": "YES"}
